- studyTarget: NHE3 (Homo sapiens)
- Construct: expressed in transfected cells
- Sequence (P48764 26-834): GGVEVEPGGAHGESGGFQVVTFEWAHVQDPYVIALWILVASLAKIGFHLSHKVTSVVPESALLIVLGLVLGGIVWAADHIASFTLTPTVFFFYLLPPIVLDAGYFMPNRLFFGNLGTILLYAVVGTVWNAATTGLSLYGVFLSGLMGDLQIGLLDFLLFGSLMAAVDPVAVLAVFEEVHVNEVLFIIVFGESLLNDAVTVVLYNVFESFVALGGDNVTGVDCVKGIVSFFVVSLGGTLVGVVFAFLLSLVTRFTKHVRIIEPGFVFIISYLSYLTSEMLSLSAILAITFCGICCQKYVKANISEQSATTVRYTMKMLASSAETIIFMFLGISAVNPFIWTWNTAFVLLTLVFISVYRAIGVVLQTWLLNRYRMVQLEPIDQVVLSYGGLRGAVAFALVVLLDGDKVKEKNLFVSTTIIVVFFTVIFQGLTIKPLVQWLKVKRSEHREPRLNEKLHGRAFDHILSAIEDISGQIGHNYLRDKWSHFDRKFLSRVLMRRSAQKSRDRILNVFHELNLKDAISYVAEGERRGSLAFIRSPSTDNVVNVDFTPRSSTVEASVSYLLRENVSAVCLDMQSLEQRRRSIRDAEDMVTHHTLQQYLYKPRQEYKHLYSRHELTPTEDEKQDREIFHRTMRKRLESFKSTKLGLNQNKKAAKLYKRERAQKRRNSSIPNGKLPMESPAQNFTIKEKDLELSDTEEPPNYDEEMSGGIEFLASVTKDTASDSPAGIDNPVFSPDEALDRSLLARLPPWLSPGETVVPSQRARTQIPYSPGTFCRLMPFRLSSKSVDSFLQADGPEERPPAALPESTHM
- Sequence (Q99653 2-195 partner limits assumed): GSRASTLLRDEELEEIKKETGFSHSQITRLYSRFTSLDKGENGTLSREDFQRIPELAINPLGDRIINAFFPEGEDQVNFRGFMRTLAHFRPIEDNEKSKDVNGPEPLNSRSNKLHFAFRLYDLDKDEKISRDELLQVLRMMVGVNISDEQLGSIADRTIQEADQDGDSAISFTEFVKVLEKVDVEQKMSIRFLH
- testDetails: Cell-based assay of NHE-3 activity (pre-incubation inhibition), human
- condition: human Preincubation
testReadout: % inhibition

compound: Cc1cc(S(=O)(=O)NCCOCCOCCNC(=O)NCCCCNC(=O)NCCOCCOCCNS(=O)(=O)c2ccc(O[C@H]3c4cc(Cl)cc(F)c4C[C@@H]3N(C)C)c(C)c2)ccc1O[C@H]1c2cc(Cl)cc(F)c2C[C@@H]1N(C)C [Example 16]
testReadout: % inhibition
measurement: B (40-70%)

compound: O=C(NCCCCNC(=O)NCCOCCOCCNS(=O)(=O)c1ccc(O[C@H]2c3cc(Cl)cc(Cl)c3C[C@@H]2N2CC3CCC2C3)cc1)NCCOCCOCCNS(=O)(=O)c1ccc(O[C@H]2c3cc(Cl)cc(Cl)c3C[C@@H]2N2CC3CCC2C3)cc1 [Example 68]
testReadout: % inhibition
measurement: C (>70%)

compound: Cc1cc(S(=O)(=O)NCCOCCOCCNC(=O)NCCCCNC(=O)NCCOCCOCCNS(=O)(=O)c2ccc(O[C@H]3c4cc(Cl)cc(C)c4C[C@@H]3N3CCNCC3)c(C)c2)ccc1O[C@H]1c2cc(Cl)cc(C)c2C[C@@H]1N1CCNCC1 [Example 35]
testReadout: % inhibition
measurement: C (>70%)

compound: N#Cc1cc(Cl)cc2c1C[C@H](N1CCCNCC1)[C@H]2Oc1ccc(S(=O)(=O)N[C@H]2CCN(CCOCCNC(=O)NCCCCNC(=O)NCCOCCN3CC[C@H](NS(=O)(=O)c4ccc(O[C@H]5c6cc(Cl)cc(C#N)c6C[C@@H]5N5CCCNCC5)cc4)C3)C2)cc1 [Example 126]
testReadout: % inhibition
measurement: C (>70%)

compound: Cc1cc(S(=O)(=O)N[C@H]2CCN(CCOCCNC(=O)NCCCCNC(=O)NCCOCCN3CC[C@H](NS(=O)(=O)c4ccc(O[C@H]5c6cc(Cl)cc(C)c6C[C@@H]5N5CCC[C@@H](N(C)C)C5)c(C)c4)C3)C2)ccc1O[C@H]1c2cc(Cl)cc(C)c2C[C@@H]1N1CCC[C@@H](N(C)C)C1 [Example 114, (trifluoroacetate)]
testReadout: % inhibition
measurement: C (>70%)

Asked: Any idea what its % inhibition is? The compound is N#Cc1cc(Cl)cc2c1C[C@H](N1CCNCC1)[C@H]2Oc1ccc(S(=O)(=O)NCCOCCOCCNC(=O)NCCCCNC(=O)NCCOCCOCCNS(=O)(=O)c2ccc(O[C@H]3c4cc(Cl)cc(C#N)c4C[C@@H]3N3CCNCC3)cc2)cc1 [Example 41]
Given back: C (>70%)

Asked: Any idea what its % inhibition is? The compound is CN(C)[C@@H]1CCCN([C@H]2Cc3c(C#N)cc(Cl)cc3[C@@H]2Oc2ccc(S(=O)(=O)NCCOCCOCCNC(=O)NCCCCNC(=O)NCCOCCOCCNS(=O)(=O)c3ccc(O[C@H]4c5cc(Cl)cc(C#N)c5C[C@@H]4N4CCC[C@@H](N(C)C)C4)c(F)c3)cc2F)C1 [Example 40]
Given back: A (NHE3 < 40%)
